Quick list: IC50 per entry.
Test system: 227483-062-R1-J1-PDC complex spheroids with HUVEC/MSC, viability;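 further: spheroids exposed to compounds for seven days before readout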
Test: Anticancer human tumor 227483-062-R1-J1-PDC patient-derived pancreatic carcinoma cell line growth inhibition [CLK]
Conditions: curve of compound

Below are worked cases with known answers.
1) COc1ccc([C@@H](O)c2cc(-c3ncnc4cc(N5CCOCC5)ccc34)c(F)cc2Cl)nn1	> 10 µM
2) CC(=O)O[C@H]1C(=O)[C@@]2(C)[C@H]([C@H](OC(=O)c3ccccc3)[C@]3(O)C[C@H](OC(=O)[C@H](O)[C@@H](NC(=O)c4ccccc4)c4ccccc4)C(C)=C1C3(C)C)[C@]1(OC(C)=O)CO[C@@H]1C[C@@H]2O	< 0.0316 µM
3) CC(CO)NC(=O)c1cc(-c2ccc(Cl)cc2)nn(-c2cnn(C)c2)c1=O (stereo not drawn)	> 10 µM

// IC50 lookup, key: CC(Nc1ccc2c(c1)OCCn1cc(N3C(=O)OCC3C(F)F)nc1-2)C(N)=O (stereo not drawn)
> 10 µM

And what about the compound O=C(c1cc(Cc2n[nH]c(=O)c3ccccc23)ccc1F)N1CCN(C(=O)C2CC2)CC1 ?
> 10 µM

And what about the compound CC1COCCN1c1cc(C2(S(C)(=N)=O)CC2)nc(-c2ccnc3[nH]ccc23)n1 (stereo not drawn) ?
> 10 µM

Each recorded value in this set is attributed to PubChem BioAssay AID2060623.
